Provide the reported pIC50 of each item.
# System: Endogenous Huntingtin Protein
# Procedure summary: Endogenous Huntingtin Protein Assay (ELISA-based MSD electrochemiluminescence)
# Format: cell-based
# Experimental parameters: Table 2; MSD plates coated with MW1 (expanded polyglutamine) or MAB2166 capture antibody; "inactive" = result above the detection limit of the assay
# Description: Compounds of Formula (I) were tested using the Meso Scale Discovery (MSD) Assay provided in International Application No. PCT/US2016/066042, filed on Dec. 11, 2016 and claiming priority to U.S. Provisional Application 62/265,652 filed on Dec. 10, 2015, the entire contents of which are incorporated herein by reference. The Endogenous Huntingtin Protein assay used in Biological Example 1 was developed using the ELISA-based MSD electrochemiluminescence assay platform. […]
Please report pIC50 as the negative decimal logarithm of the molar concentration, giving only the number.

For the compound Cc1cnc(-c2ccc(-c3cnc(N4CCN[C@@H](C(C)C)C4)nn3)c(O)c2)cn1 , what pIC50 is on record?
6.32

Entry under review: Cc1cn2cc(-c3ccc(-c4cnc(N5C[C@@H](C)N[C@@H](C)C5)nn4)c(O)c3)ncc2n1 . Reported pIC50?
8.22

Could you share which pIC50 value was measured for Cn1nc2ccc(-c3ccc(-c4cnc(N5CCN[C@@H](C6CC6)C5)nn4)c(O)c3)nc2n1 ?
8.43

Report pIC50 for CC(C)(O)C1CN(c2ncc(-c3ccc(-c4c[nH]nc4F)cc3O)nn2)CCN1 (centres unmarked) please.
8.35

Form field: reported pIC50 of Cc1nc2ccc(-c3ccc(-c4cnc(N5CCN[C@@H](C(C)C)C5)nn4)c(O)c3)cn2n1
8.22

If you can, please state the reported pIC50 value of CCC(C)C1CN(c2ncc(-c3ccc(-c4cn[nH]c4)cc3O)nn2)CCN1 (centres unmarked) .
7.38

Need pIC50 of Oc1cc(-c2cn[nH]c2)ccc1-c1cnc(N2CCNC(CC(F)(F)F)C2)nn1 (centres unmarked) , thanks.
6.27

State the recorded pIC50 for this entry: CC(C)[C@H]1CN(c2ncc(-c3c(O)cc(-c4cn[nH]c4F)cc3F)nn2)CCN1
8.14

Form field: reported pIC50 of Cn1nnc2ncc(-c3ccc(-c4cnc(N5CCN[C@@H](C6CC6)C5)nn4)c(O)c3)cc21
6.45

Which pIC50 value is on record for CC(C)[C@H]1CN(c2ncc(-c3ccc(-c4cn[nH]c4)cc3O)nn2)CCN1 ?
7.77

Could you share which pIC50 value was measured for Cc1cn2cc(-c3ccc(-c4cnc(N5CCN[C@@H](C(C)C)C5)nn4)c(O)c3)cc(C)c2n1 ?
8.12

Looking for the measured pIC50 of Oc1cc(-c2cn[nH]c2)ccc1-c1cnc(N2CCNC(c3ccncc3)C2)nn1 (centres unmarked) , can you help?
5.62

Which pIC50 value is on record for Oc1cc(-c2ncco2)ccc1-c1cnc(N2CCN[C@@H](C3CC3)C2)nn1 ?
7.75

Entry under review: Cc1ccc2c(cnn2-c2ccc(-c3cnc(N4CCN[C@@H](C(C)C)C4)nn3)c(O)c2)n1 . Reported pIC50?
7.71

Tell me the measured pIC50 of Oc1cc(-c2cn[nH]c2)ccc1-c1cnc(N2CCNC(C3(O)CC3)C2)nn1 (centres unmarked) , please.
8.17

So what's the measured pIC50 for this one? CC(C)[C@H]1CN(c2ncc(-c3ccc(-c4ccc5nccn5n4)cc3O)nn2)CCN1
7.87

Need pIC50, item COc1cc(-c2ccc(-c3cnc(N4C[C@@H](C)N[C@@H](C)C4)nn3)c(O)c2)nn2nc(C)nc12
8.17

----------
# System: Endogenous Huntingtin Protein
# Procedure summary: Endogenous Huntingtin Protein Assay (ELISA-based MSD electrochemiluminescence)
# Format: cell-based
# Experimental parameters: Table 2; MSD plates coated with MW1 (expanded polyglutamine) or MAB2166 capture antibody; "inactive" = result above the detection limit of the assay
Kindly supply the reported pIC50 values for the records listed here.
Note: pIC50 values are expressed as the negative base-10 logarithm of concentration in M.

Query (molecule): C[C@@H]1CN(c2ncc(-c3ccc(-c4cnc5nn(C)cc5c4)cc3O)nn2)C[C@H](C)N1 [Cpd 97] ; field requested: pIC50
8.01

Looking for the measured pIC50 of CC(C)[C@H]1CN(c2ncc(-c3ccc(-c4cnsn4)cc3O)nn2)CCN1 [Cpd 265] , can you help?
6.54

Fill in the blank: the reported pIC50 of CN1CCN(c2ncc(-c3ccc(-c4cnc5nn(C)cc5c4)cc3O)nn2)CC1 [Cpd 110] is ____.
7.60

# query: pIC50 of entry CC(C)[C@H]1CN(c2ncc(-c3ccc(-c4cn[nH]c4F)cc3O)nn2)C[C@@H](C)N1 [Cpd 222]
8.03

----------
# Tested on: Endogenous Huntingtin Protein
# Procedure summary: Endogenous Huntingtin Protein Assay (ELISA-based MSD electrochemiluminescence)
# Format: cell-based
# Experimental parameters: Table 2; MSD plates coated with MW1 (expanded polyglutamine) or MAB2166 capture antibody; "inactive" = result above the detection limit of the assay
pIC50: −log10 of the molar value.
Entry flag: TRUE if pIC50 reaches 8; FALSE if it does not.

Is it the case that CC(C)[C@H]1CN(c2ncc(-c3ccc(-c4cnn(C)n4)cc3O)nn2)CCN1 [Cpd 262] has pIC50 reaching or exceeding 8?
FALSE

Check if pIC50 >= 8 (inclusive). Item: CC[C@H]1CN(c2ncc(-c3ccc(-c4cn[nH]c4)cc3O)nn2)CCN1 [Cpd 23]
FALSE

Reported pIC50 reaches at least 8 for Oc1cc(-c2cn[nH]c2)ccc1-c1cnc(N2CCNC3(CC3)C2)nn1 [Cpd 55] ?
FALSE

Quick check, pIC50 >= 8? CCN1CCN(c2ncc(-c3ccc(-c4cc(F)c5nc(C)cn5c4)cc3O)nn2)CC1 [Cpd 77]
TRUE

Does pIC50 meet or surpass 8 for CC(C)[C@H]1CN(c2ncc(-c3ccc(-c4cnsc4)cc3O)nn2)CCN1 [Cpd 250] ?
FALSE

Is reported pIC50 greater than or equal to 8 here: CC(C)[C@H]1CN(c2ncc(-c3ccc(-c4ncc(C#N)s4)cc3O)nn2)CCN1 [Cpd 272]
FALSE

Could you verify whether the entry CC1([C@H]2CN(c3ncc(-c4ccc(-c5cnn6c5CCC6)cc4O)nn3)CCN2)CC1 [Cpd 280] shows pIC50 of no less than 8?
TRUE

Tell me whether pIC50 is at least 8 here: Cc1cn2nc(-c3ccc(-c4cnc(N5C[C@@H](C)N(C)[C@@H](C)C5)nn4)c(O)c3)cc(C#N)c2n1 [Cpd 108]
FALSE

Can CN1CCN(c2ncc(-c3ccc(-c4cn[nH]c4)cc3O)nn2)CC1C1COC1 (centres unmarked) [Cpd 187] be said to have pIC50 at or above 8?
FALSE

Evaluate CC(C)[C@H]1CN(c2ncc(-c3ccc(-c4nc(Cl)cs4)cc3O)nn2)CCN1 [Cpd 188] : pIC50 at minimum 8?
FALSE

Kindly determine if pIC50 recorded for Cc1cn2nc(-c3ccc(-c4cnc(N5CCN(C)CC5)nn4)c(O)c3)ccc2n1 [Cpd 82] is above or exactly 8.
TRUE

Hello, I need to know if C[C@@H]1CN(c2ncc(-c3ccc(-c4ccn(C)n4)cc3O)nn2)C[C@H](C2CCC2)N1 [Cpd 240] has measured pIC50 not below 8. Thanks!
FALSE

Check if pIC50 >= 8 (inclusive). Item: C[C@@H]1CN(c2ncc(-c3ccc(-c4cc(C#N)c5nn(C)cc5c4)cc3O)nn2)C[C@H](C)N1 [Cpd 80]
TRUE

Hello, I need to know if OC[C@@H]1CN(c2ncc(-c3ccc(-n4nccn4)cc3O)nn2)CCN1 [Cpd 45] has measured pIC50 not below 8. Thanks!
FALSE

----------
# System: Endogenous Huntingtin Protein
# Procedure summary: Endogenous Huntingtin Protein Assay (ELISA-based MSD electrochemiluminescence)
# Format: cell-based
# Experimental parameters: Table 3; selected compounds from WO/2019/191229 A1, same MSD assay
# Procedure: Compounds of Formula (I) were tested using the Meso Scale Discovery (MSD) Assay provided in International Application No. PCT/US2016/066042, filed on Dec. 11, 2016 and claiming priority to U.S. Provisional Application 62/265,652 filed on Dec. 10, 2015, the entire contents of which are incorporated herein by reference. The Endogenous Huntingtin Protein assay used in Biological Example 1 was developed using the ELISA-based MSD electrochemiluminescence assay platform. […]
Reported metric: IC50 (nM)
Value expressed in nM; do not type the unit.

# IC50 lookup, item CC1CN(c2ncc(-c3ccc(-c4cnn(C)c4)cc3O)nn2)CC(C)N1 (centres unmarked) [WO/2019/191229 A1 Cpd 263, reference compound]
352

Looking for the measured IC50 of C[C@@H]1CN(c2ncc(-c3ccc(-c4ccc5nccn5n4)cc3O)nn2)C[C@H](C)N1 [WO/2019/191229 A1 Cpd 385, reference compound] , can you help?
33.1

Would you kindly share the measured IC50 for CC1CN(c2ncc(-c3ccc(-c4cn[nH]c4)cc3O)nn2)CC(C)N1 (centres unmarked) [WO/2019/191229 A1 Cpd 262, reference compound] ?
72.8

Given the compound Oc1cc(-c2cn[nH]c2)ccc1-c1cnc(N2CCNCC2)nn1 [WO/2019/191229 A1 Cpd 328, reference compound] , what is its reported IC50?
106

Entry Oc1cc(-c2cn[nH]c2)ccc1-c1cnc(N2CCN3CCC[C@H]3C2)nn1 [WO/2019/191229 A1 Cpd 116, reference compound] has what IC50?
91.4

Entry source: patent US20230234942A1
